We begin with a simple list: items and their reported pIC50.
Biological target: human FASN (Homo sapiens)
Construct: was purified from SKBR3 cells using procedures modified from those in Jayakumar et al; endogenous in cells; host or cells: SKBR3 human breast cancer cells (ATCC); Endogenous enzyme purified by ammonium sulfate precipitation and a mono Q column
Experiment: FASN NADPH Consumption Assay
Assay type: biochemical
Details: human FASN purified from SKBR3 cells; starred symbols
pIC50: −log10 of the molar value.

molecule | pIC50
CCN(C(=O)n1nnn(-c2c(F)cccc2OC)c1=O)c1ccccc1C(C)(C)C | 5.00 to 6.00
CCN(C(=O)n1nnn(-c2ccccc2)c1=O)c1cc(C(=O)O)ccc1OC | 6.60 to 7.22
CCN(C(=O)n1nnn(-c2cc(Cl)ccc2Cl)c1=O)C1CCCCC1 | 5.00 to 6.00

Request: Form field - read-out: pIC50; system: human FASN (Homo sapiens); submitted item: CCN(C(=O)n1nnn(-c2c(Cl)cccc2Cl)c1=O)c1ccc(Cl)c(C(=O)OCc2ccccc2)c1
Result: 6.60 to 7.22

Request: Form field - read-out: pIC50; system: human FASN (Homo sapiens); submitted item: O=C(N1CCCC2CCCCC21)n1nnn(-c2c(Cl)cccc2Cl)c1=O (stereo not shown)
Result: 6.00 to 6.60

Request: Form field - read-out: pIC50; system: human FASN (Homo sapiens); submitted item: CCN(C(=O)n1nnn(-c2c(F)cccc2F)c1=O)c1cccc2ccccc12
Result: 6.60 to 7.22

Request: Form field - read-out: pIC50; system: human FASN (Homo sapiens); submitted item: O=C(N1CCCC2CCCCC21)n1nnn(-c2ccccc2Oc2ccccc2)c1=O (stereo not shown)
Result: 6.00 to 6.60

Request: Form field - read-out: pIC50; system: human FASN (Homo sapiens); submitted item: CCNC(=O)NC1CCCN(C(=O)n2nnn(-c3c(Cl)cccc3Cl)c2=O)C1 (stereo not shown)
Result: < 5.00

Request: Form field - read-out: pIC50; system: human FASN (Homo sapiens); submitted item: COc1ccc(C(=O)O)cc1N(CCCCc1ccccc1)C(=O)n1nnn(-c2ccccc2OC)c1=O
Result: 6.00 to 6.60

Request: Form field - read-out: pIC50; system: human FASN (Homo sapiens); submitted item: CCN(C(=O)n1nnn(-c2c(Cl)cccc2Cl)c1=O)c1cccc(N)c1
Result: 6.60 to 7.22

Request: Form field - read-out: pIC50; system: human FASN (Homo sapiens); submitted item: CCN(C(=O)n1nnn(-c2c(Cl)cccc2Cl)c1=O)C1CCCC(C(=O)N2CCN(C)CC2)C1 (stereo not shown)
Result: 5.00 to 6.00

Request: Form field - read-out: pIC50; system: human FASN (Homo sapiens); submitted item: C/C=C/C/C=C/CCCN(C)C(=O)n1nnn(-c2ccccc2Cl)c1=O
Result: 5.00 to 6.00

Request: Form field - read-out: pIC50; system: human FASN (Homo sapiens); submitted item: CCN(C(=O)n1nnn(-c2c(C)cccc2C(C)(C)C)c1=O)C1CCCCC1
Result: < 5.00

Request: Form field - read-out: pIC50; system: human FASN (Homo sapiens); submitted item: CCCCCCCCCCCCN(C)C(=O)n1nnn(-c2ccccc2Cl)c1=O
Result: 6.00 to 6.60

Request: Form field - read-out: pIC50; system: human FASN (Homo sapiens); submitted item: CCN(C(=O)n1nnn(-c2ccc(Cl)cc2Cl)c1=O)C1CCCCC1
Result: 5.00 to 6.00

Request: Form field - read-out: pIC50; system: human FASN (Homo sapiens); submitted item: O=C(N1CCCC1)n1nnn(-c2c(Cl)cccc2Cl)c1=O
Result: < 5.00

Request: Form field - read-out: pIC50; system: human FASN (Homo sapiens); submitted item: CCN(C(=O)n1nnn(-c2c(Cl)cccc2Cl)c1=O)C1CCC(C(=O)NC(C(N)=O)c2ccccc2)CC1 (stereo not shown)
Result: 5.00 to 6.00

Request: Form field - read-out: pIC50; system: human FASN (Homo sapiens); submitted item: Cc1ccccc1C#Cc1cccc(F)c1-n1nnn(C(=O)N2CCCCc3ccccc32)c1=O
Result: 6.60 to 7.22

Request: Form field - read-out: pIC50; system: human FASN (Homo sapiens); submitted item: CCN(C(=O)n1nnn(-c2c(Cl)cccc2Cl)c1=O)C1CCN(C(C)=O)CC1
Result: 5.00 to 6.00

====

We begin with a simple list: items and their reported pIC50.
Target: human FASN (Homo sapiens)
Construct: was purified from SKBR3 cells using procedures modified from those in Jayakumar et al; endogenous in cells; host or cells: SKBR3 human breast cancer cells (ATCC); Endogenous enzyme purified by ammonium sulfate precipitation and a mono Q column
Assay: FASN Scintillation Proximity Flashplate Assay
Type: biochemical
Conditions: human FASN purified from SKBR3 cells; unstarred symbols
pIC50: −log10 of the molar value.

Some compounds with recorded pIC50:
query_smiles | measurement_type | endpoint_value
CCN(C(=O)n1nnn(-c2ccccc2OC)c1=O)c1ccc(OC)cc1 | pIC50 | 6.70 to 7.00
COc1ccc(N(C(=O)n2nnn(-c3c(F)cccc3C(=O)N3CCOCC3)c2=O)C(C)C)cc1C(=O)O | pIC50 | 5.30 to 6.70
CN(C)N(C(=O)n1nnn(-c2ccccc2Cl)c1=O)C1CCCC1 | pIC50 | 5.30 to 6.70
COc1ccc(N(C(=O)n2nnn(-c3ccccc3OC)c2=O)C(C)C)cc1C(=O)O | pIC50 | 5.30 to 6.70
COc1ccc(C(=O)O)cc1N(C(=O)n1nnn(-c2c(F)cccc2OC(C)C)c1=O)C1CCCCC1 | pIC50 | 7.00 to 7.82

Request: Sample CCCCOc1ccc(C(=O)O)cc1N(CC)C(=O)n1nnn(-c2ccccc2OC)c1=O — what was its pIC50?
Result: > 7.82

Request: Sample COC(=O)c1cc(N(C(=O)n2nnn(-c3c(F)cccc3F)c2=O)C2CCCCC2)ccc1OC — what was its pIC50?
Result: > 7.82

Request: Sample CCOC(=O)N1CCN(c2ccc(N(C(=O)n3nnn(-c4c(F)cccc4F)c3=O)C3CCCCC3)cc2C(=O)O)CC1 — what was its pIC50?
Result: > 7.82

Request: Sample Nc1ccc(N(C(=O)n2nnn(-c3c(F)cccc3F)c2=O)C2CCCCC2)cc1C(=O)O — what was its pIC50?
Result: > 7.82

Request: Sample O=C(O)c1cc(N(C(=O)n2nnn(-c3c(F)cccc3F)c2=O)C2CCCCC2)ccc1OC(=O)N1CCOCC1 — what was its pIC50?
Result: > 7.82

Request: Sample COc1ccc(N(C(=O)n2nnn(-c3c(F)cccc3OCC(OC)OC)c2=O)C2CCCCC2)cc1C(=O)O — what was its pIC50?
Result: > 7.82

Request: Sample COc1ccc(N(C(=O)n2nnn(-c3c(F)cccc3C(=O)N3CCOCC3)c2=O)C(C)C)cc1C(=O)OCc1ccccc1 — what was its pIC50?
Result: > 7.82

Request: Sample O=C(N1CCCc2cccc(F)c21)n1nnn(-c2c(F)cccc2F)c1=O — what was its pIC50?
Result: > 7.82

====

Biological target: human FASN (Homo sapiens)
Construct: was purified from SKBR3 cells using procedures modified from those in Jayakumar et al; endogenous in cells; host or cells: SKBR3 human breast cancer cells (ATCC); Endogenous enzyme purified by ammonium sulfate precipitation and a mono Q column
Test: FASN Scintillation Proximity Flashplate Assay
Format: biochemical
Details: human FASN purified from SKBR3 cells; unstarred symbols
pIC50: −log10 of the molar value.
measurement_type: pIC50

Request: Sample COCCOc1cccc(F)c1-n1nnn(C(=O)N(c2ccc(OC)c(C(=O)O)c2)C2CCCCC2)c1=O — what was its pIC50?
Result: > 7.82

Request: Sample CN(C)c1ccc2c(c1)OC(=O)CC2CC(=O)Nc1cccc2c1CCCN2C(=O)n1nnn(-c2c(F)cccc2F)c1=O (centres unmarked) — what was its pIC50?
Result: 7.00 to 7.82

Request: Sample CCN(C(=O)n1nnn(-c2c(F)cccc2OC)c1=O)c1ccccc1 — what was its pIC50?
Result: > 7.82

Request: Sample O=C(N1Cc2cccc3cccc(c23)C1)n1nnn(-c2c(F)cccc2F)c1=O — what was its pIC50?
Result: 7.00 to 7.82

Request: Sample COc1cccc(F)c1-n1nnn(C(=O)N(c2ccccc2)[C@H]2CC[C@H](C(=O)O)CC2)c1=O — what was its pIC50?
Result: 6.70 to 7.00

====

We begin with a simple list: items and their reported pIC50.
Molecular target: human FASN (Homo sapiens, UniProt P49327)
Construct: was purified from SKBR3 cells using procedures modified from those in Jayakumar et al; endogenous in cells; host or cells: SKBR3 human breast cancer cells (ATCC); Endogenous enzyme purified by ammonium sulfate precipitation and a mono Q column
Sequence (P49327 whole entry): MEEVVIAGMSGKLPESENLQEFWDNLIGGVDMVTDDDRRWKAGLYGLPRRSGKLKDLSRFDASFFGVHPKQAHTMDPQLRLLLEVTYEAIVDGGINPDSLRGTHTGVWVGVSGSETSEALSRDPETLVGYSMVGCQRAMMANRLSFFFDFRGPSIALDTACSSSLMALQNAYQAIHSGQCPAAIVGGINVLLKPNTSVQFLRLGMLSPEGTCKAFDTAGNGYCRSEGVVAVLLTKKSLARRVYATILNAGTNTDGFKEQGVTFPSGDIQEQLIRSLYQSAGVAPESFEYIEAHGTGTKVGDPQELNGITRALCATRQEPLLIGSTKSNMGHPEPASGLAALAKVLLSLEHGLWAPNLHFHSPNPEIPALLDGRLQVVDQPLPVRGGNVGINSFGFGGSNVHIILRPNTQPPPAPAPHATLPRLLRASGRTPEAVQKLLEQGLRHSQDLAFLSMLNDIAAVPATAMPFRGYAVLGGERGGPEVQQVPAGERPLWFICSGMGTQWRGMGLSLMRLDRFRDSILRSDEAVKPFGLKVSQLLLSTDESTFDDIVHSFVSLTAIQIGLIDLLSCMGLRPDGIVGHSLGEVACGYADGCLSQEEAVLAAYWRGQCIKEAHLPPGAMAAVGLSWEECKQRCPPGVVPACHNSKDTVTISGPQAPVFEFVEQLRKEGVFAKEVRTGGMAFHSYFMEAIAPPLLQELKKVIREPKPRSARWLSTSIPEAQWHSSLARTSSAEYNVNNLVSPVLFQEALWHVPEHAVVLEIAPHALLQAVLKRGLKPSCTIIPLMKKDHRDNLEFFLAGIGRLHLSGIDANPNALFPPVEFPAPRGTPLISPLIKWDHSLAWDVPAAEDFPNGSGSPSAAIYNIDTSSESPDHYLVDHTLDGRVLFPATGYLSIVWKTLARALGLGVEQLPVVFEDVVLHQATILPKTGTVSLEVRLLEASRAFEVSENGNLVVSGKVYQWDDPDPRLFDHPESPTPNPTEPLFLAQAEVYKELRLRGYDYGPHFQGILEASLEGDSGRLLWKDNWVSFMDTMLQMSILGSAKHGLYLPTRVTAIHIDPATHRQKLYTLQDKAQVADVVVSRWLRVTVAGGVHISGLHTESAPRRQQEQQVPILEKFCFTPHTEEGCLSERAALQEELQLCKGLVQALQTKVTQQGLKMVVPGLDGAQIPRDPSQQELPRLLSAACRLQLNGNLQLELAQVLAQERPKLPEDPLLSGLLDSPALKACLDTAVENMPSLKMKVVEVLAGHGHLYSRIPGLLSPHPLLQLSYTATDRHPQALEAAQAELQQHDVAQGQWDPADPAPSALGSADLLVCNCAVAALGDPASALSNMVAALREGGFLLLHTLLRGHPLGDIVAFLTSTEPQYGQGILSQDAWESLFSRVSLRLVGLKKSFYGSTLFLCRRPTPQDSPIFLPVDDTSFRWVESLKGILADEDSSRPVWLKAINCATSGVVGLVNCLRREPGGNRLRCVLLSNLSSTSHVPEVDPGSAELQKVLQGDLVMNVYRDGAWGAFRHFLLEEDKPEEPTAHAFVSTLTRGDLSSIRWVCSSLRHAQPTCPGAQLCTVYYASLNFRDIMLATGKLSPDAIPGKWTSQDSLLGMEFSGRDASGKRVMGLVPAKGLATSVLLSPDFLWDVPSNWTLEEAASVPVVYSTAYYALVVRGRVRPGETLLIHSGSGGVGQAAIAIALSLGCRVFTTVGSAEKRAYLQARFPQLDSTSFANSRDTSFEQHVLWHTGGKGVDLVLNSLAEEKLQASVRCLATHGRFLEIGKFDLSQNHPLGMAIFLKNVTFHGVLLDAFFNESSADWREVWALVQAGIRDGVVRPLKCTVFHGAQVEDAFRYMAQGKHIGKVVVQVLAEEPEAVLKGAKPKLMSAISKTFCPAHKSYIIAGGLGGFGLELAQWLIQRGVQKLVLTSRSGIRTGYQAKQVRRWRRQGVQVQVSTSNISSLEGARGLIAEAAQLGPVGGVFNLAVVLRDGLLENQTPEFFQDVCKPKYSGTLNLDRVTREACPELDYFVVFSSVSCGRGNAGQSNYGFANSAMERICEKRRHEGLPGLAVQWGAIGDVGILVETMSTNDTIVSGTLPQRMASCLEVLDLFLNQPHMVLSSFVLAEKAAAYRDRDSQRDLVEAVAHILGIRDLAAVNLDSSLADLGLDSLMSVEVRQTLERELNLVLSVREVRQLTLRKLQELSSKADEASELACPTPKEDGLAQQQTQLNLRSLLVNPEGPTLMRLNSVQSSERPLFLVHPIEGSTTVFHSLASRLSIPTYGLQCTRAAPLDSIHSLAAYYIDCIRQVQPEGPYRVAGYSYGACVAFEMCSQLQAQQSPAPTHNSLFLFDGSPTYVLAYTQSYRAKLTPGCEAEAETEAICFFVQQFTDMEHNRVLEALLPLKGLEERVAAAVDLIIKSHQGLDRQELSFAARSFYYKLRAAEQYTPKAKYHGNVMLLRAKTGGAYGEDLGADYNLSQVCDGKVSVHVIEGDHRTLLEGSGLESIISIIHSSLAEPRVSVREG
Assay: FASN NADPH Consumption Assay
Format: biochemical
Conditions: human FASN purified from SKBR3 cells; starred symbols
pIC50: −log10 of the molar value.

Some compounds with recorded pIC50:
compound | assay_system | pIC50
CCN(C(=O)n1nnn(-c2c(Cl)cccc2Cl)c1=O)C1CCCCC1 | human FASN (Homo sapiens, UniProt P49327) | 5.00 to 6.00
CCN(C(=O)n1nnn(-c2ccccc2Cl)c1=O)C(C)(C)C | human FASN (Homo sapiens, UniProt P49327) | < 5.00
CCN(C(=O)n1nnn(-c2c(F)cccc2CCc2ccccc2)c1=O)c1ccccc1 | human FASN (Homo sapiens, UniProt P49327) | 6.60 to 7.22
CCN(C(=O)n1nnn(-c2c(Cl)cccc2Cl)c1=O)C1CCC(C(=O)N2CCOCC2)CC1 (stereo not shown) | human FASN (Homo sapiens, UniProt P49327) | < 5.00
CC(C)(C)OC(=O)Nc1ccc2c(c1)CCCN2C(=O)n1nnn(-c2c(F)cccc2F)c1=O | human FASN (Homo sapiens, UniProt P49327) | 6.60 to 7.22
CCN(C(=O)n1nnn(-c2ccccc2OC)c1=O)c1cc(C(=O)O)ccc1OC | human FASN (Homo sapiens, UniProt P49327) | 6.60 to 7.22
O=C(N1CCCc2cc(Br)ccc21)n1nnn(-c2c(F)cccc2F)c1=O | human FASN (Homo sapiens, UniProt P49327) | 6.60 to 7.22
COc1ccc(C(=O)O)cc1N(CCCc1ccccc1)C(=O)n1nnn(-c2ccccc2OC)c1=O | human FASN (Homo sapiens, UniProt P49327) | 6.00 to 6.60
CCN(C(=O)n1nnn(-c2c(F)cccc2F)c1=O)c1c(F)cccc1Cl | human FASN (Homo sapiens, UniProt P49327) | 6.60 to 7.22

Let us move to another entry and its pIC50.
Request: Sample O=C(O)c1ccc(N(CCc2ccccc2)C(=O)n2nnn(-c3ccccc3)c2=O)cc1 — what was its pIC50?
Result: 6.00 to 6.60
